Data provenance: patent US20100092409A1

Target: tumor necrosis factor α (TNFα) (UniProt P01375 77-233)
Sequence (P01375 77-233 limits assumed): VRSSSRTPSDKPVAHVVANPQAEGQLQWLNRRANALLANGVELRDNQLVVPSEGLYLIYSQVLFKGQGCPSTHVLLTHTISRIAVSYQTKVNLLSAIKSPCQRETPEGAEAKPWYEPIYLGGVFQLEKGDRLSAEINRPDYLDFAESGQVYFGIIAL
Experiment: BioVeris ECL competition with a labeled competitor; grade ++ = apparent IC50 about 10-50 µM
pIC50: −log10 of the molar value.
reported_metric: pIC50

Lookup: Give the measured pIC50 for BBIt-TNFα-T1-A13I-S25R-M27A-L29P-S31A-F50K-V52T (designed binder, also called BBIt-TNF-T1) DPDDESSKPCCDQCICTKSNPPQCRCRDARPNACHSACKSCACRYWQDIPCKCTDITDFCYEPCKPSE
Found: 4.30 to 5.00
